Tested on: U251 CNS
The categories you may choose from are active, inactive

The examples below pair each entry with its known result.
O=C(/C=C/c1cccc([N+](=O)[O-])c1)c1ccc(O)c(CN2CCN(c3cc4c(cc3F)c(=O)c(C(=O)O)cn4C3CC3)CC2)c1 :: inactive
COc1ccc2nc3cc([N+](=O)[O-])ccc3c(NCCCN(CCO)CCO)c2c1 :: inactive
CCCCOC(=O)c1ccc(NC(=O)CCl)cc1 :: inactive
CC1(C)CCC[C@]2(C)c3cc(O)ccc3CC[C@@H]12 :: inactive
COc1ccc(-c2nn(-c3cccc(Cl)c3)cc2-c2c(C#N)c(=O)n3[nH]c(-c4ccc(C)cc4)nc3c2C#N)cc1 :: inactive
O=C(NCCN1CCC(O)CC1)c1cc2c(o1)C(=O)c1ccccc1C2=O :: active
Cc1cccc(Cl)c1NC(=O)c1cnc(Nc2cc(N3CCOCC3)cc(N3CCOCC3)c2)s1 :: inactive
O=CC(Br)C(Br)c1ccccc1 (stereo not drawn) :: inactive

Please indicate how the test categorized CN1C(=O)C(=Cc2cn(Cc3ccccc3)c3ccccc23)C(=O)N(C)C1=O . inactive

# lookup: test call for O=C(Nc1ccc2[nH]c(C(=O)N3CC(CCl)c4c3cc([N+](=O)[O-])c3ccccc43)cc2c1)c1cc2ccccc2o1 (stereo not drawn) inactive

Hi, do you know how O=C(O)c1ccc2c3c(ncnc13)-c1ccccc1C2=O came out in this test? inactive

Which outcome was assigned to OC(C1CO1)C(O)C1CO1 (stereo not drawn) in this test? inactive

Which outcome was entered for the compound CN[C@@H]1C[C@H]2O[C@@](C)([C@@H]1OC)n1c3ccccc3c3c4c(c5c6ccccc6n2c5c31)C(=O)N[C@H]4O in this test? active

* * *

Test system: OVCAR-4 ovarian
TEST: NCI tumour cell line growth inhibition, 48 h
Field: TGI. Provide a value for each of the molecules that follow.

# example entries with known answers
COc1ccc(CCNC(=O)CCCCCO)cc1OC :: > 100 µM
COc1cc(F)cc([C@@H](CO)NC(=O)[C@@H](C)N2Cc3ccc(-c4nc(NC5CCOCC5)ncc4Cl)cc3C2=O)c1 :: > 91.6 µM
COc1ccc2c(c1)c1nc3cc(C)c(C)cc3nc1n2CCN(C)C :: 2.43 µM
Cc1[nH]c(=O)nc2nc3ccc(Cl)cc3c(NC(C)(CO)CO)c12 :: > 100 µM

Let us move to another entry and its TGI.
Need TGI of O=c1oc(-c2ccccc2)cc2cccc(O)c12 , thanks. > 100 µM

* * *

System: MALME-3M melanoma
TEST: NCI tumour cell line growth inhibition, 48 h; in the data active means GI50 below about 0.43 µM; inactive means the rest
Your answer must be one of the following: active, inactive

# count of solved cases: 5
COc1ccc(-c2nn(-c3cccc(Cl)c3)cc2-c2c(C#N)c(=O)n3[nH]c(-c4ccc(C)cc4)nc3c2C#N)cc1 :: inactive
C[C@@H](NC(=O)[C@@H](CC(=O)N1CCC(N2CCCCC2)CC1)N1C(=O)[C@@H](N2C(=O)OC[C@@H]2c2ccccc2)[C@H]1/C=C/c1cccc(Cl)c1)c1ccccc1 :: inactive
Cn1c(/C=C(\C#N)c2cccc(C(F)(F)F)c2)nc2c(N3CCOCC3)nc(Cl)nc21 :: inactive
CC1(C)N=C(N)N=C(N)N1c1ccc(CCc2ccc(Cl)cc2S(=O)(=O)F)c(Cl)c1 :: inactive
CCCOC(=O)N[C@H]1CCc2cc(OC)c(OC)c(OC)c2-c2ccc(SC)c(=O)cc21 :: active

Field: next compound
How was CCN(CC)CCCC(C)Nc1c2ccc(Cl)cc2nc2cc(OC)c(OC)cc12 (stereo unspecified) classified in this test? inactive

* * *

Exercise: for every item that follows, state its recorded TGI.
System: A549 NSCLC
TEST: NCI tumour cell line growth inhibition, 48 h

Cc1ccc(C(=O)N2c3ccccc3N(C)n3cccc3C2CC(=O)O)cc1 (stereo not given) :: > 100 µM
CC(=O)OCc1ccc(O)c(C=O)c1 :: > 100 µM
CC1C2CC(CC2N)C1(C)C (stereo not given) :: > 100 µM

Lab note: each compound below needs its TGI filled in.
1. O=C(O)C1C(=O)Oc2c(cccc2[N+](=O)[O-])C1O (stereo not given)
2. O=c1cc(-c2ccccc2)nc(/C=C(\O)c2ccncc2)n1-c1ccccc1
3. CCOc1ccc2nc(-c3cccc(OCC(=O)NC(C)C)c3)nc(Nc3ccc(-c4cn[nH]c4)cc3)c2c1
4. CN(C)CCNC(=O)c1cccc2[nH]c(-c3ccncc3)nc12

> 100 µM
> 100 µM
3.54 µM
> 44.9 µM

Batch lookup, TGI per entry.
1. CSc1nc(SC)c2c(C(N)=S)[nH]nc2n1
2. Cc1cc2c(cc1-c1cc3c(cc1C)C(C(C)C)=C(O)C(=O)/C3=C\Nc1c(C)n(C)n(-c3ccccc3)c1=O)/C(=C/Nc1c(C)n(C)n(-c3ccccc3)c1=O)C(=O)C(O)=C2C(C)C
3. CC(O)c1cc2c(s1)C(=O)c1scc(C(C)O)c1C2=O (stereo not given)
4. O=C1NC(=O)C(c2ccc(Cl)cc2)=C1Nc1ccc(Cl)c(C(=O)O)c1

1: 65.6 µM; 2: > 100 µM; 3: 3.98 µM; 4: > 25 µM

Quick batch: TGI for everything below.
1. O=C(Nc1ccc2[nH]c(C(=O)N3CC(CCl)c4c3cc([N+](=O)[O-])c3ccccc43)cc2c1)c1cc2ccccc2o1 (stereo not given)
2. NC(=O)c1ncn2c(=O)n(CCl)nnc12
3. COc1cc2c(cc1OC)-c1ccc3cc4c(cc3c1N(CCN(C)C)C2)OCO4

1. > 1100 µM
2. > 100 µM
3. 2.13 µM

Count: 6. Required value per item: TGI.
1. COC12OC3CC4(C)C(=CC3OC(OC(C)C1O)C2O)CCC1C4CCC2(C)C(c3ccc(=O)oc3)CCC12O (stereo not given)
2. O=C1[C@H]2ON(c3ccccc3)C(c3ccccc3F)[C@H]2C(=O)N1c1ccc(Cc2ccc(N3C(=O)[C@@H]4ON(c5ccccc5)C(c5ccccc5F)[C@@H]4C3=O)cc2)cc1 (stereo not given in full)
3. O=[P+](O)c1cc2ccccc2c2ccccc12
4. NC(=O)C[C@H](NC(=O)C1(NC(=O)[C@H](Cc2ccc(CP(=O)(O)O)cc2)NC(=O)C(=O)O)CCCCC1)C(=O)NCCCc1cccc2ccccc12
5. COc1ccc(SC2c3ccc(C)cc3Oc3nc(N)c(C#N)c(N)c32)cc1 (stereo not given)
6. CC(C)(O)[C@@H]1CC[C@@]2(C)CCC[C@H](O)[C@H]2C1

["0.00166 µM", "> 100 µM", "> 100 µM", "> 10 µM", "4.21 µM", "> 100 µM"]

* * *

Tested on: SF-268 CNS
TEST: NCI tumour cell line growth inhibition, 48 h
VALUE_KIND: GI50

Below, 3 compounds whose answers are already recorded.
Cn1cc(-c2nc(-c3c[nH]c4ccncc34)cs2)c2cc(F)ccc21 :: 1.74 µM
CC1(C)CCC[C@]2(C)c3cc(O)ccc3CC[C@@H]12 :: 16.4 µM
CN1CCN(C(=O)c2c(NC(=O)NS(=O)(=O)c3ccccc3)sc3c2CCCCC3)CC1 :: 41.2 µM

Parameters: items (list). Returns: GI50 for each item.
1. O=C(O)CC(NC(=O)CP(=O)(O)O)C(=O)O.[NH-]C1CCCCC1[NH-].[Pt+2] (stereo not given)
2. COc1ccc(-c2cn(-c3cccc(C(=O)/C=C/c4ccc(O)c(OC)c4)c3)c(=O)[nH]2)cc1

1. 78.8 µM
2. 3.32 µM

* * *

System: SK-MEL-5 melanoma
TEST: NCI tumour cell line growth inhibition, 48 h
VALUE_KIND: TGI

Example entries and their recorded answers appear below.
O=S(=O)(O)c1cc(Nc2ccnc3ccccc23)c2c(S(=O)(=O)O)cc(S(=O)(=O)O)cc2c1 :: > 100 µM
CCOC(=O)c1cc2c(cn1)[nH]c1cccc(N)c12 :: > 100 µM
Cn1cc(-c2nc(-c3c[nH]c4ccncc34)cs2)c2cc(F)ccc21 :: 3.03 µM
CCn1c2ccc(C(=O)CCCN(C)C)cc2c2cc(C(=O)CCCN(C)C)ccc21 :: 17.1 µM
Clc1ccc(/C=N/Nc2nnc3c4ccccc4c4ncccc4c3n2)cc1 :: > 10 µM
CCCCN=C(NC#N)N(Cc1ccccc1)Cc1ccccc1 :: 26.1 µM
CCO/C=C1\N=C(C(Cl)c2ccccc2)OC1=O (stereo not drawn) :: > 100 µM

Consider now this further molecule.
# TGI lookup, item COc1cc([C@@H]2c3cc4c(cc3[C@@H](N=Cc3ccc(C(=O)O[C@@H](C(=O)O[C@H]5C[C@@]6(O)[C@@H](OC(=O)c7ccccc7)[C@@H]7[C@]8(OC(C)=O)CO[C@@H]8C[C@H](O)[C@@]7(C)C(=O)[C@H](OC(C)=O)C(=C5C)C6(C)C)[C@@H](NC(=O)c5ccccc5)c5ccccc5)cc3)[C@H]3COC(=O)[C@H]23)OCO4)cc(OC)c1O > 50 µM
